Biological target: T1, hIL-4Rα on cells (human, UniProt P24394 26-825)
T1 sequence: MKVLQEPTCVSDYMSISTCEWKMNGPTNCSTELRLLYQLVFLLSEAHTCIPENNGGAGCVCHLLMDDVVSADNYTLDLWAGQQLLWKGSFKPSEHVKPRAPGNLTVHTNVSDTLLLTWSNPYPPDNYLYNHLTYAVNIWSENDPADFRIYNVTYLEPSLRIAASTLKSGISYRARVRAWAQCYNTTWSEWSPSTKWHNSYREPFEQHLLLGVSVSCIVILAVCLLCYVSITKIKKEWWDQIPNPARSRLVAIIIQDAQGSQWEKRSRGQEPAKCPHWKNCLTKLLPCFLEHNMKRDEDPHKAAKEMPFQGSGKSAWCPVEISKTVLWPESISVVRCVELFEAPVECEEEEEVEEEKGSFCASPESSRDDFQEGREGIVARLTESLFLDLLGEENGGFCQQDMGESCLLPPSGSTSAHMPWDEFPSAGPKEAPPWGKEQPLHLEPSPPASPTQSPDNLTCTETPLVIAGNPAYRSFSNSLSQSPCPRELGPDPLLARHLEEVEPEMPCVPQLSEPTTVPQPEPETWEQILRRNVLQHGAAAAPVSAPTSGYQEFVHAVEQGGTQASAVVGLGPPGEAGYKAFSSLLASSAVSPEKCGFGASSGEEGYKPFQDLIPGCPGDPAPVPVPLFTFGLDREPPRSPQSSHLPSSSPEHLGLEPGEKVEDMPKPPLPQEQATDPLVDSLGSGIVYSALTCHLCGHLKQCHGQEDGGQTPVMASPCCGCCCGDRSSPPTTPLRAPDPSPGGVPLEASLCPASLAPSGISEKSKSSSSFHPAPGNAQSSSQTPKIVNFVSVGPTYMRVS
Assay: FACS on HEK293 cells, competitor biotin-hIL-13;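 note: stably transduced cells co-expressing both receptor chains, stained cold, with cell-bound signal read as mean fluorescence intensity by flow cytometry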
Assay Endpoint: Relative Blockade of IL-13 Binding IC50

Request the reported Relative Blockade of IL-13 Binding IC50 associated with Construct 24 (mAb432) (antibody, IgG4, V domains shown, VH/VL only) VH: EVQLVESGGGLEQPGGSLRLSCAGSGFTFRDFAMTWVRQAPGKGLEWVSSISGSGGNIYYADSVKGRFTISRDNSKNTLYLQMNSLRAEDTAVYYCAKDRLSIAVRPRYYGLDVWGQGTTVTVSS VL: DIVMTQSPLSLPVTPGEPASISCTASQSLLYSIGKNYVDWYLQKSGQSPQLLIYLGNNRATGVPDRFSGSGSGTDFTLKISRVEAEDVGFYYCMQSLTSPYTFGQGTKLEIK
0.825 relative to dupilumab

Can you check Construct 1 (mAb410) (antibody, IgG4, V domains shown, VH/VL only) VH: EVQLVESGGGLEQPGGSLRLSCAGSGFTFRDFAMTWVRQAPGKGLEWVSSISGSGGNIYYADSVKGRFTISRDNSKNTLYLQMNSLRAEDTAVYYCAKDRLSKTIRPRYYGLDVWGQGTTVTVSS VL: DIVMTQSPLSLPVTPGEPASISCRSSQSVLYSIGYNYVDWYLQKSGQSPQLLIYLGSKRASGVPDRFSGSGSGTDFTLKISRVEAEDVGFYYCMQSLDTPYTFGQGTKLEIK next?
0.968 relative to dupilumab

Quick one: Construct 2 (mAb411) (antibody, IgG4, V domains shown, VH/VL only) VH: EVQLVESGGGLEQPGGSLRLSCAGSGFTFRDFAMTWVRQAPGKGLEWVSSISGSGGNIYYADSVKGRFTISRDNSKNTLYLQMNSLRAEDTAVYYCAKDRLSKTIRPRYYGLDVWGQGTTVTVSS VL: DIVMTQSPLSLPVTPGEPASISCTASQSLLYSIGYNYVDWYLQKSGQSPQLLIYLGSKRASGVPDRFSGSGSGTDFTLKISRVEAEDVGFYYCMQALTTPYTFGQGTKLEIK
0.942 relative to dupilumab
